biological target: V-type proton ATPase subunit B (Manduca sexta, UniProt P31401); assay: Inhibition of Manduca sexta V-ATPase V1/Vo holoenzyme activity assessed as inorganic phosphate production pretreated for 5 mins
Sequence (P31401 whole entry): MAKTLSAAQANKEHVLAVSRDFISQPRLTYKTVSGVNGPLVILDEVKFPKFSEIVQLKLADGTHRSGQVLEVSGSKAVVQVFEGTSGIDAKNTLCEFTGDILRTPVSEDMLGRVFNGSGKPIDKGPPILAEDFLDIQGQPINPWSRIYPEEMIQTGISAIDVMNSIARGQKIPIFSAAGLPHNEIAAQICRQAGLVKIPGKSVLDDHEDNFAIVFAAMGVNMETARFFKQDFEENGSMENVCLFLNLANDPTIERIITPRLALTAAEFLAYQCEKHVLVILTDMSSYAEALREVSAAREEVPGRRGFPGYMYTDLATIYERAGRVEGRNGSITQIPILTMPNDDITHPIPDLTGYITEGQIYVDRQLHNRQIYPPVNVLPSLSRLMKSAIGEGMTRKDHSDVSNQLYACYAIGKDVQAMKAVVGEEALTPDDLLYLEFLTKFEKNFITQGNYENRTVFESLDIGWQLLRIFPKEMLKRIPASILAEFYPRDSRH
Parameter Measured: IC50 (nmol/mg)
The answer is to be given in nmol/mg; state only the numeric part.

CNC(=O)O[C@@H](CC(C)C)c1nc([C@H]2OC(=O)/C(C)=C/C/C(C)=C/[C@@H](O)[C@@H](C)\C=C(C)/C=C(C)\C=C\[C@@H](O)[C@H](C)[C@H](OC)/C(C)=C/C=C/[C@@H]2C)cs1 [ARCHAZOLID A] ... 0.6

// moving on: another record for IC50
**Q:** Name the recorded IC50 of the compound listed here: CNC(=O)O[C@@H](CC(C)C)c1nc([C@H]2OC(=O)/C(C)=C/C/C(C)=C/[C@@H](O[C@@H]3O[C@H](CO)[C@@H](O)[C@H](O)[C@H]3O)[C@@H](C)\C=C(CO)/C=C(C)\C=C\[C@@H](O)[C@H](C)[C@H](OC)/C(C)=C/C=C/[C@@H]2C)cs1 [ARCHAZOLID D]
**A:** 1200

----------
molecular target: V-type proton ATPase subunit B (Manduca sexta); assay: Inhibition of Manduca sexta V-ATPase V1/Vo holoenzyme activity assessed as inorganic phosphate production pretreated for 5 mins
Listed next: entries and their corresponding IC50.
State the value with its unit after it.

CNC(=O)O[C@@H](CC(C)C)c1nc([C@H]2OC(=O)/C(C)=C/C/C(C)=C/[C@@H](O[C@@H]3O[C@H](CO)[C@@H](O)[C@H](O)[C@H]3O)[C@@H](C)\C=C(C)/C=C(C)\C=C\[C@@H](O)[C@H](C)[C@H](OC)/C(C)=C/C=C/[C@@H]2C)cs1 ... 210 nmol/mg
CNC(=O)O[C@@H](CC(C)C)c1nc([C@H]2OC(=O)C/C=C/C(C)=C/[C@@H](O)[C@@H](C)\C=C(C)/C=C(C)\C=C\[C@@H](O)[C@H](C)[C@H](OC)/C(C)=C/C=C/[C@@H]2C)cs1 ... 0.7 nmol/mg

**Q:** In one line, give reported IC50 of the entry `CNC(=O)O[C@@H](CC(C)C)c1nc([C@H]2OC(=O)/C=C/C/C(C)=C/[C@@H](O)[C@@H](C)\C=C(C)/C=C(C)\C=C\[C@@H](O)[C@H](C)[C@H](OC)/C(C)=C/C=C/[C@@H]2C)cs1` .
**A:** 0.6 nmol/mg

----------
tested on: L929; experiment: Antiproliferative activity against mouse L929 cells assessed as growth inhibition after 5 days by MTT assay; format: functional; conditions: L929, 120 h
Parameter Measured: GI50 (nM)
Answer format: numeric, nM implied, no suffix.

**Q:** Recall the reported GI50 of CNC(=O)O[C@@H](CC(C)C)c1nc([C@H]2OC(=O)/C(C)=C/C/C(C)=C/[C@@H](O)[C@@H](C)\C=C(C)/C=C(C)\C=C\[C@@H](O)[C@H](C)[C@H](OC)/C(C)=C/C=C/[C@@H]2C)cs1 [ARCHAZOLID A] when tested on L929.
**A:** 0.81

**Q:** Identify measured GI50 obtained with L929 for CNC(=O)O[C@@H](CC(C)C)c1nc([C@H]2OC(=O)/C(C)=C/C/C(C)=C/[C@@H](O)[C@@H](C)\C=C(C)/C=C(C)\C=C\[C@@H](O[C@@H]3O[C@H](CO)[C@@H](O)[C@H](O)[C@H]3O)[C@H](C)[C@H](OC)/C(C)=C/C=C/[C@@H]2C)cs1 [ARCHAZOLID E] .
**A:** 510

----------
system: L929; assay: Antiproliferative activity against mouse L929 cells assessed as growth inhibition after 5 days by MTT assay; type: functional; settings: L929, 120 h
Parameter Measured: GI50 (nM)
Give your result in nM as a bare value.

CNC(=O)O[C@@H](CC(C)C)c1nc([C@H]2OC(=O)/C=C/C/C(C)=C/[C@@H](O)[C@@H](C)\C=C(C)/C=C(C)\C=C\[C@@H](O)[C@H](C)[C@H](OC)/C(C)=C/C=C/[C@@H]2C)cs1 [ARCHAZOLID B] ... 1.1

**Q:** Specify the recorded GI50 for CNC(=O)O[C@@H](CC(C)C)c1nc([C@H]2OC(=O)/C(C)=C/C/C(C)=C/[C@@H](O[C@@H]3O[C@H](CO)[C@@H](O)[C@H](O)[C@H]3O)[C@@H](C)\C=C(C)/C=C(C)\C=C\[C@@H](O)[C@H](C)[C@H](OC)/C(C)=C/C=C/[C@@H]2C)cs1 [ARCHAZOLID C] , system: L929.
**A:** 1600

**Q:** Return reported GI50 for target or system L929, item CNC(=O)O[C@@H](CC(C)C)c1nc([C@H]2OC(=O)C/C=C/C(C)=C/[C@@H](O)[C@@H](C)\C=C(C)/C=C(C)\C=C\[C@@H](O)[C@H](C)[C@H](OC)/C(C)=C/C=C/[C@@H]2C)cs1 [ARCHAZOLID F] .
**A:** 0.11

**Q:** Provide the reported GI50 (system: L929) for CNC(=O)O[C@@H](CC(C)C)c1nc([C@H]2OC(=O)/C(C)=C/C/C(C)=C/[C@@H](O[C@@H]3O[C@H](CO)[C@@H](O)[C@H](O)[C@H]3O)[C@@H](C)\C=C(CO)/C=C(C)\C=C\[C@@H](O)[C@H](C)[C@H](OC)/C(C)=C/C=C/[C@@H]2C)cs1 [ARCHAZOLID D]
**A:** 330
